I'd be grateful if you could share measured MIC for these entries.
test system: Enterococcus faecium; experiment: Antimicrobial activity against antibiotic-resistant Enterococcus faecium ATCC 700221 assessed as inhibition of visible growth measured after 20 to 24 hrs incubation by CLSI method; type: functional; settings: time 20-24 hrs
Report only the number, with the unit µg/mL understood.

// query Lab note: need MIC with Enterococcus faecium for entry O=C(O)c1ccc(-n2cc(CNc3cccc(OC(F)(F)F)c3)c(-c3ccc(F)cc3)n2)cc1 , please look it up.
// result 16

// query Which MIC is reported with Enterococcus faecium for this entry: O=C(O)c1ccc(-n2cc(CNc3cc(Cl)c(F)c(Cl)c3)c(-c3ccc(F)c(F)c3)n2)cc1 ?
// result 1

// query API: value(readout=MIC, system=Enterococcus faecium) for record O=C(O)c1ccc(-n2cc(CNc3cc(Cl)c(F)c(Cl)c3)c(-c3cccc(F)c3)n2)cc1
// result 4

// query Hello, I am looking for reported MIC with Enterococcus faecium for O=C(O)c1ccc(-n2cc(CNc3cc(Cl)cc(Cl)c3)c(-c3ccc(F)c(F)c3)n2)cc1 . Could you help?
// result 2

// query Give MIC (Enterococcus faecium) of the following molecule: O=C(O)c1ccc(-n2cc(CNc3ccc(F)c(Cl)c3)c(-c3ccc(F)cc3)n2)cc1
// result 16

// query Request - read-out MIC | tested on Enterococcus faecium | molecule O=C(O)c1ccc(-n2cc(CNc3ccc(Oc4ccccc4)cc3)c(-c3ccc(F)c(F)c3)n2)cc1
// result 2

// query Given the entry O=C(O)c1ccc(-n2cc(CNc3ccc(F)c(C(F)(F)F)c3)c(-c3ccc(F)cc3)n2)cc1 , what MIC was observed with Enterococcus faecium?
// result 16

Reference for the values: ChEMBL document CHEMBL5365500
